Biological target: MERS-CoV spike protein (EMC/2012), wt (MERS-CoV (isolate EMC/2012), UniProt K9N5Q8 18-1353)
Assay: cell-based or functional assay
quantity: IC50 against MERSpp (nM)
Give just the numeric value; nM need not be written.

Use the examples below as a reference point.
>  <binder>
H2aM15270N (antibody, V domains shown) VH: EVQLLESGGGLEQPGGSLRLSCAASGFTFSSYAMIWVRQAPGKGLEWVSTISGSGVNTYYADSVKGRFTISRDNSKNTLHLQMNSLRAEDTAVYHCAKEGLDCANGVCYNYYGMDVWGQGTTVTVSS VL: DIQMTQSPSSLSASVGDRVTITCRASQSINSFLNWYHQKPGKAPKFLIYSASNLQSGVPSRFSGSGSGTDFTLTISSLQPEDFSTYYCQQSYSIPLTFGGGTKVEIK

>  <IC50 against MERSpp [nM]>
0.102

$$$$
>  <binder>
H2aM15278N (antibody, V domains shown) VH: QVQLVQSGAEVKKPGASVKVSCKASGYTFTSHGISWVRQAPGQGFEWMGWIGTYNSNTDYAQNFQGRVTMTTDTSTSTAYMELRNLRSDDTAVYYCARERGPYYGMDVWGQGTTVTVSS VL: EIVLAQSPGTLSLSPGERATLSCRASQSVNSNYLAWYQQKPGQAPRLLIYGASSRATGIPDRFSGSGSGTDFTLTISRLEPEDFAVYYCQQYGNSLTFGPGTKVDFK

>  <IC50 against MERSpp [nM]>
0.142

$$$$

// next entry
Prompt line: So what's the measured IC50 against MERSpp for this one? H1M15269N (antibody, V domains shown) VH: EVQLLESGGGLVQPGGSLRLSCPASGFTFSNYAMTWVRQAPGKGLEWVSAISGSGATTKYADSVKGRFTISRDNSRNTLYLQMNSLRAEDTAVYYCAKGGSGSYFPYYYYGLDVWGQGTTVTVSS VL: EIVMTQSPATLSVSPGDSATLSCRASQTVSSNLAWYQQKPGQAPRLLIYGASTRATGIPARFSGSGSGTEFTLTISSLQSEDFAVYYCQQYYNWWTFGQGTKVEIK
Response line: 0.688
